Catalogue of % Cell viability values
Tested on: U937 cell line
measurement.description: MTT assay, toxicity (cell viability), U937
Assay type: cell-based
condition.details: U937, 48 h, 10 μM

# compound, test.target, % Cell viability [%]
measured = [
    ("COc1ccccc1CCN(CC(N)=O)C(=O)C1CC(=O)N(CCc2ccc(Cl)cc2Cl)CC(=O)N1CCC(c1ccccc1)c1ccccc1 (centres unmarked)", "U937 cell line", 97),
    ("CCCCN(CC(N)=O)C(=O)C1CC(=O)N(CCc2ccc(Cl)cc2Cl)CC(=O)N1CCC(c1ccccc1)c1ccccc1 (centres unmarked)", "U937 cell line", 75),
    ("NC(=O)CN(CC1CCCO1)C(=O)C1CC(=O)N(CCc2ccc(Cl)cc2Cl)CC(=O)N1CCC(c1ccccc1)c1ccccc1 (centres unmarked)", "U937 cell line", 95),
    ("NC(=O)CN(C(=O)C1CC(=O)N(CCc2ccc(Cl)cc2Cl)CC(=O)N1CCC(c1ccccc1)c1ccccc1)C1CC1 (centres unmarked)", "U937 cell line", 83),
    ("NC(=O)CN(CCc1ccc(F)cc1)C(=O)C1CC(=O)N(CCc2ccc(Cl)cc2Cl)CC(=O)N1CCC(c1ccccc1)c1ccccc1 (centres unmarked)", "U937 cell line", 99),
    ("NC(=O)CN(CCc1ccccc1F)C(=O)C1CC(=O)N(CCc2ccc(Cl)cc2Cl)CC(=O)N1CCC(c1ccccc1)c1ccccc1 (centres unmarked)", "U937 cell line", 59),
    ("CC(=O)NCCNC(=O)CNC(=O)C1CC(=O)N(CCc2ccc(Cl)cc2Cl)CC(=O)N1CCC(c1ccccc1)c1ccccc1 (centres unmarked)", "U937 cell line", 98),
    ("NC(=O)CN(CCc1ccc(Cl)cc1)C(=O)C1CC(=O)N(CCc2ccc(Cl)cc2Cl)CC(=O)N1CCC(c1ccccc1)c1ccccc1 (centres unmarked)", "U937 cell line", 99),
]
